target: T1, Cyno TIGIT-His; experiment: SPR (ProteOn), Cyno TIGIT-His
T1 construct: also called cyno TIGIT monomer (prepared in-house); C-terminal HIS-tagged cyno TIGIT ECD recombinant protein
T1 sequence (ECD with C-terminal His tag, as listed by the source): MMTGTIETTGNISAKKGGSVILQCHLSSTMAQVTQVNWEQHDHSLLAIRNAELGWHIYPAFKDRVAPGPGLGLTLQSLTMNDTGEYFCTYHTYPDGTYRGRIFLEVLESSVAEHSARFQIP

{"columns": ["binder", "Kd [nM]"],
 "data": [
  ["BM26 hIgG4 (antibody, V domains shown, benchmark anti-human TIGIT antibody, human IgG4 with S241P; also called BM26-H4; WO2016/028656A1 Clone 3106 as hIgG4) VH: EVQLQQSGPELVKPGSSVKMSCKASGYTFSSYVMHWVKQKPGQGLEWIGYIDPYNDGAKYNEKFKGKATLTSDKSSSTAYMELSSLTSEDSAVYYCARGGPYGWYFDVWGAGTTVTVSS VL: DIQMTQSPASLSASVGETVTITCRASEHIYSYLSWYQQKQGKSPQLLVYNAKTLAEGVPSRFSGSGSGTQFSLKINSLQPEDFGTYYCQHHFGSPLTFGAGTTLELKR", 0.0035],
  ["CHA.9.547.1 (antibody, human IgG4 S228P, kappa, V domains shown, AF647 dye on the antibody in the FACS assay of FIG. 73, also called CHA.9.547.1.H4(S241P)) VH: EVQLVESGGGLVQPGGSLRLSCAASGFTFSSYIMSWVRQAPGKGLEWVSTISGGGTNTYYADSVKGRFTISRDNSKNTLYLQMNSLRAEDTAVYYCAKWLLSYYAMDYWGQGTLVTVSS VL: DIQMTQSPSSLSASVGDRVTITCRASQNINVWLTWYQQKPGKAPKLLIYKASNLHTGVPSRFSGSGSGTDFTLTISSLQPEDFATYYCQQGQSYPYTFGQGTKLEIKR", 1.13],
  ["CHA.9.547.7.H4(S241P) (antibody, human IgG4 S228P, kappa, V domains shown, humanized hybridoma anti-TIGIT antibody, human IgG4) VH: EVQLVESGGGLVQPGGSLRLSCAASGFTFSSYIMSWVRQAPGKGLEWVATISGGGTNTYYADSVKGRFTISRDNSKNTLYLQMNSLRAEDTAVYYCAKWLLSYYAMDYWGQGTLVTVSS VL: DIQMTQSPSSLSASVGDRVTITCRASQNINVWLTWYQQKPGKAPKLLIYKASKSHTGVPSRFSGSGSGTDFTLTISSLQPEDFATYYCQQGQSYPYTFGQGTKLEIKR", 0.456]
]}
